- test.protocol: NCI Yeast Anticancer Drug Screen. Data for the wt2 strain (AID 169);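 also: 0% = growth of vehicle-treated yeast cultures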
- condition.info: S. cerevisiae wt2 strain growth inhibition; at 33.0 µM; stronger effect = higher value
This is part of a sample that, as a whole, favours compounds with a hit. Of some 79,000 tested, about 15% had one in any assay.
Documented growth inhibition across a set of compounds
Quick note: give the figure in %, leave out the unit.

For orientation, consider the following solved cases.
{"compound": "Nc1ccc(F)cc1S", "growth inhibition [%]": 95}
{"compound": "O=[N+]([O-])c1ccc(N/N=C/Cc2ccccc2)c([N+](=O)[O-])c1", "growth inhibition [%]": 6}

Ask: // growth inhibition lookup, key: CN(C)N=Nc1ccccc1C(=O)NC#N
Reply: 99

Ask: Data request, read-out growth inhibition, for Cc1nc2ccccc2nc1NNc1ccccc1
Reply: 23

Ask: // returns reported growth inhibition for input O=C(O)CCCC1CCCc2c1ccc1ccccc21 (stereo not drawn)
Reply: 57

Ask: State the recorded growth inhibition for this entry: Cc1c2cc[n+](Cc3ccc(I)cc3)cc2c(C)c2c1[nH]c1ccccc12
Reply: 97

Ask: Query (compound): COC(=O)CCC(NC(=S)N/N=C(\C)c1ccccn1)C(=O)OC (stereo not drawn) ; field requested: growth inhibition
Reply: 51

----------
Measured growth inhibition, listed per entry for reference.
- test.protocol: NCI Yeast Anticancer Drug Screen. Data for the mlh1 strain (AID 171);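 also: 0% = growth of vehicle-treated control cultures of the same strain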
- condition.info: S. cerevisiae mlh1 strain growth inhibition; at 33.0 µM; stronger effect = higher value
The panel holds about 79,000 compounds, 15% with a hit somewhere; the sample as a whole holds those more often.
The response must be a number in % with no trailing unit.

Examples with their reported growth inhibition follow.
{"compound": "O=c1nc2n(Cc3ccccc3)c3ccccc3nc-2c(=O)[nH]1", "property": "growth inhibition", "endpoint.result": 93}
{"compound": "CCc1c[n+]([O-])c(C)cc1[N+](=O)[O-]", "property": "growth inhibition", "endpoint.result": 7}
{"compound": "CN(C)c1nc(=Nc2cccc(Cl)c2)ss1", "property": "growth inhibition", "endpoint.result": 99}
{"compound": "Nc1nc(N)c2nc(CNc3ccc(C(=O)NC(CCC(=O)O)C(=O)O)cc3F)cnc2n1 (stereo not drawn)", "property": "growth inhibition", "endpoint.result": 29}
{"compound": "Cc1cc(-c2cc(C)c(O)c(C(C)(C)C)c2)cc(C(C)(C)C)c1O", "property": "growth inhibition", "endpoint.result": 9}

Ask: Consider the compound CC(O)=NC(Cc1ccc2ccccc2c1)C(O)=NC(Cc1ccc(Cl)cc1)C(O)=NC(Cc1c[nH]c2ccccc12)C(O)=NC(CO)C(O)=NC(Cc1ccc(O)cc1)C(O)=NC(CCCN=C(N)N)C(O)=NC(CC(C)C)C(O)=NC(CCCN=C(N)N)C(=O)N1CCCC1C(O)=NC(C)C(=N)O (stereo not drawn) and give its measured growth inhibition.
Reply: 3

Ask: # get_value(readout='growth inhibition', item= CNC(=O)OCc1c(COC(=O)NC)c(-c2ccc(Cl)c(Cl)c2)n2c1SCC2 )
Reply: -2

Ask: Which value of growth inhibition has been reported for O=C1Nc2ccccc2/C1=C/c1ccccc1 in the records?
Reply: 30

Ask: Can you look up the measured growth inhibition of c1ccc(Cc2cc(-c3ccccc3)n[nH]2)cc1 for me?
Reply: 5

Ask: Fill blank: measured growth inhibition of the compound COC(=O)Oc1cc(Cl)c(Cl)cc1Cl is ____.
Reply: 3

Ask: Return reported growth inhibition; argument: COc1ccc(/C=C2\NC(=S)N(/C=C3\C(=O)Oc4ccccc4C3=O)C2=O)cc1
Reply: 9

Ask: Can you share its growth inhibition? I mean this compound: CN(C)N=Nc1ccccc1C(=O)NC#N
Reply: 99

Ask: So what does the record say about growth inhibition for O=C(NCCCNCCN1C(=O)c2cccc3cc([N+](=O)[O-])cc(c23)C1=O)c1cc(-c2ccccc2)nc2ccccc12 ?
Reply: 9

Ask: // growth inhibition lookup, key: CCCCc1ccc(-n2c(C)c(COC(=O)NC)c(COC(=O)NC)c2C)cc1
Reply: 97

Ask: Return reported growth inhibition; argument: C=C(Cl)COC(=O)Nc1cccc(Cl)c1
Reply: 36

Ask: Which growth inhibition is reported for this compound? CC(=O)OC1CC2C(C)(C)C(=O)C=C[C@]2(C)C2CCC3(C)C(=CCC3[C@H](CO)C[C@H](O)C(=O)C(C)(C)O)[C@]12C (stereo partly drawn)
Reply: 86

Ask: Which growth inhibition is listed for CS(=O)(=O)SCc1ccc([N+](=O)[O-])cc1 ?
Reply: 99

Ask: Look up growth inhibition for this compound: Clc1ccc2c(c1)N(CCCN1CCCC13CCCCC3)c1ccccc1S2
Reply: -15

Ask: Consider the compound shown here: CN(C)c1ccc(N=Nc2ccncc2)cc1 What is its recorded growth inhibition?
Reply: 42

Ask: Please look up its growth inhibition: Cc1cc(C(C)(C)CC(C)(C)C)ccc1O
Reply: 95

Ask: May I ask what growth inhibition has been recorded for O=C1C=C(c2ccccc2)OC1(c1ccccc1)N1CCOCC1 (stereo not drawn) ?
Reply: 55

Ask: Item Brc1ccccc1-c1ncc(-c2ccccc2)o1 has what recorded growth inhibition?
Reply: 47

Ask: Item C/C=C/SC(=Nc1ccccc1)Nc1ccccc1 has what recorded growth inhibition?
Reply: -5

----------
- test.protocol: NCI Yeast Anticancer Drug Screen. Data for the rad14 strain (AID 159);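 also: 0% = growth of vehicle-treated control cultures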
- condition.info: S. cerevisiae rad14 strain growth inhibition; at 11.0 µM; stronger effect = higher value
This is part of a sample that, as a whole, favours compounds with a hit. Of some 79,000 tested, about 15% had one in any assay.
property: growth inhibition (%)
Reply numerically in %, unit not repeated.

Solved cases below.
{"compound": "COC(=O)/C=C(/C(=O)OC)C(Cl)(Cl)Cl", "readout.unit": "%", "growth inhibition": 64}
{"compound": "O=C1C=C(c2ccccc2)OC1(c1ccccc1)N1CCOCC1 (configuration not stated)", "readout.unit": "%", "growth inhibition": -1}
{"compound": "CCOC(=O)C1N=[N+](c2ccccc2)C(=O)/C1=C\\n1c(=S)[nH]c2ccc([N+](=O)[O-])cc21 (configuration not stated)", "readout.unit": "%", "growth inhibition": 1}
{"compound": "Cc1cc(-c2cc(C)c(O)c(C(C)(C)C)c2)cc(C(C)(C)C)c1O", "readout.unit": "%", "growth inhibition": -23}
{"compound": "COc1cc([C@@H]2c3cc4c(cc3[C@H](OC3OC5COC(C(C)C)OC5C(O)C3O)C3COC(=O)[C@@H]32)OCO4)cc(OC)c1O (some centres not stated)", "readout.unit": "%", "growth inhibition": -11}
{"compound": "COc1ccc(NC(=O)CC2SC(=Nc3ccccc3C)NC2=O)c([N+](=O)[O-])c1 (configuration not stated)", "readout.unit": "%", "growth inhibition": 1}
{"compound": "CN(C)CCNc1ccc2ncnc3c2c1C(=O)c1ccccc1-3", "readout.unit": "%", "growth inhibition": 20}
{"compound": "CC(=O)OCC(C)Cc1cc2c(cc1Br)OCO2 (configuration not stated)", "readout.unit": "%", "growth inhibition": 9}
{"compound": "CCCC(=O)Oc1ccc(/C=N/NC(N)=S)nc1", "readout.unit": "%", "growth inhibition": -17}
{"compound": "CN(C)/C=C/c1nnc([N+](=O)[O-])s1", "readout.unit": "%", "growth inhibition": 28}

Ask: Look up growth inhibition for this compound: CS(=O)(=O)SCc1ccc([N+](=O)[O-])cc1
Reply: 69

Ask: Need growth inhibition of COc1ccc2[nH]cc([C@@H]3C4CCC(C4)[C@H]3NCc3cccc(CN[C@H]4C5CCC(C5)[C@@H]4c4c[nH]c5ccc(OC)cc45)c3)c2c1 , thanks.
Reply: 0

Ask: May I ask what growth inhibition has been recorded for CC(=O)ON=C1C=CC(=C(C#N)c2ccc(Cl)cc2)C=C1 ?
Reply: -1

Ask: Fill in: growth inhibition of C(=Nc1ccc(-c2cc(-c3ccccc3)nc3ccc4ccccc4c23)cc1)c1ccccc1 is ___
Reply: 21

Ask: Recorded growth inhibition for Cc1c(C(C)C)cc(OCCO)cc1C(C)C , please?
Reply: -2

----------
- test.protocol: NCI Yeast Anticancer Drug Screen. Data for the rad52 strain (AID 147);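 also: 0% = growth of vehicle-treated control cultures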
- condition.info: S. cerevisiae rad52 mutant growth inhibition; at 1.2 µM; stronger effect = higher value
Compounds without any hit were thinned out: in the full panel of roughly 79,000, 15% have a hit.
property: growth inhibition (%)
Write it as a number; the unit % goes unstated.

Reference set, count: 4
{"compound": "CC(C)CN(CC(C)C)C(=O)c1ccc(Cl)c(Cl)c1", "growth inhibition [%]": -4}
{"compound": "c1ccc2c(OCC3CO3)cccc2c1 (stereo unspecified)", "growth inhibition [%]": 3}
{"compound": "CSc1nc(C)c(CCOC(C)=O)c(N=P(c2ccccc2)(c2ccccc2)c2ccccc2)n1", "growth inhibition [%]": 10}
{"compound": "S=c1[nH]c2cc3ccccc3cc2[nH]1", "growth inhibition [%]": -42}

Now for the compound whose growth inhibition we want.
Ask: For Cc1ccc(S/C(=C\C(=O)O)c2ccccc2)cc1 , what is its reported growth inhibition?
Reply: 2
